Measured log10 IC50 of individual entries
target: human IKK-2 (rhIKK-2 homodimer) (Homo sapiens, UniProt O14920); construct: FLAG (DYKDDDDKD) (C); made in house; host or cells: insect cells (baculovirus, pFastBac); test: IKK-2 Resin Enzyme Assay (Human IKK-2 Enzyme Assay); type: biochemical; conditions: human IKK-2, resin enzyme assay; read-out: IC50 (μM) hIKK-2
Sequence (O14920 whole entry): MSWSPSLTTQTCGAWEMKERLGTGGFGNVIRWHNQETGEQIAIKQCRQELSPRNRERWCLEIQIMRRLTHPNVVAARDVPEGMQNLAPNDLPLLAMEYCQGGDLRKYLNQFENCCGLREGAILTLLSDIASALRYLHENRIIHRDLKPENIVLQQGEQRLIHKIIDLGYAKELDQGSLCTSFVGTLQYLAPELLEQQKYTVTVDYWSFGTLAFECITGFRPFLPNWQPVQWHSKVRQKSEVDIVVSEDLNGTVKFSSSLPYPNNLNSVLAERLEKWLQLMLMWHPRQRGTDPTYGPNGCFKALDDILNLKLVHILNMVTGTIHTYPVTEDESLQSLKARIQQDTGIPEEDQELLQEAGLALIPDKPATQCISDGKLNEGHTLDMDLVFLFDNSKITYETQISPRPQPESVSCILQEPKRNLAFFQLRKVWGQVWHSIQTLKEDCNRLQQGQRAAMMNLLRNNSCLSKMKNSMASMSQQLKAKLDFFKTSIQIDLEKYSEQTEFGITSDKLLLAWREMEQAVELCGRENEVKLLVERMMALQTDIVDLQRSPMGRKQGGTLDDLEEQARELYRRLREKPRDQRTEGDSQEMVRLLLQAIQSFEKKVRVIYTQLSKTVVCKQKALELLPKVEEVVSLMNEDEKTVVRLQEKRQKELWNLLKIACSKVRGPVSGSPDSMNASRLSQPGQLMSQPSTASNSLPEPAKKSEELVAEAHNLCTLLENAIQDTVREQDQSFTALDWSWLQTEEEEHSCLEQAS
Use the decimal logarithm of IC50 (µM).

Consider the reported log10 IC50 for these compounds:
[[record]]
molecular_string = "COc1cccc(-c2ccc(-n3cc(NC(N)=O)c(C(N)=O)n3)cc2)c1"
readout_label = "log10 IC50"
numeric_result = -0.19

[[record]]
molecular_string = "NC(=O)Nc1cn(-c2ccc(-c3ccc(C(=O)NCc4ccccc4)c(F)c3)cc2)nc1C(N)=O"
readout_label = "log10 IC50"
numeric_result = -0.51

[[record]]
molecular_string = "NC(=O)Nc1cn(-c2ccc(-c3ccc(C(=O)NCc4ccc(F)cc4)c(F)c3)cc2)nc1C(N)=O"
readout_label = "log10 IC50"
numeric_result = -0.35


# input Write down the reported log10 IC50 of Cc1cc(S(=O)(=O)c2ccc(F)cc2)ccc1-n1cc(NC(N)=O)c(C(N)=O)n1 , test system: human IKK-2 (rhIKK-2 homodimer) (Homo sapiens, UniProt O14920).
# output 0.34

# input Write down the reported log10 IC50 of NC(=O)Nc1cn(-c2cccc(-c3ccc(C(=O)NCC(=O)O)cc3)c2)nc1C(N)=O , test system: human IKK-2 (rhIKK-2 homodimer) (Homo sapiens, UniProt O14920).
# output -0.24

# input Write down the reported log10 IC50 of NC(=O)Nc1cn(-c2cccc(Sc3ccccc3F)c2)nc1C(N)=O , test system: human IKK-2 (rhIKK-2 homodimer) (Homo sapiens, UniProt O14920).
# output 0.81

# input Write down the reported log10 IC50 of N#CCCNC(=O)c1ccc(-c2cccc(-n3cc(NC(N)=O)c(C(N)=O)n3)c2)cc1 , test system: human IKK-2 (rhIKK-2 homodimer) (Homo sapiens, UniProt O14920).
# output 0.31

# input Write down the reported log10 IC50 of NC(=O)Nc1cn(-c2ccc(S(=O)(=O)c3ccc(F)cc3)cc2)nc1C(N)=O , test system: human IKK-2 (rhIKK-2 homodimer) (Homo sapiens, UniProt O14920).
# output -1.89

# input Write down the reported log10 IC50 of CNC(=O)c1ccc(-c2ccc(-n3cc(NC(N)=O)c(C(N)=O)n3)cc2)cc1F , test system: human IKK-2 (rhIKK-2 homodimer) (Homo sapiens, UniProt O14920).
# output -0.96

# input Write down the reported log10 IC50 of CCN(CC)C(=O)c1ccc(-c2ccc(-n3cc(NC(N)=O)c(C(N)=O)n3)cc2)cc1 , test system: human IKK-2 (rhIKK-2 homodimer) (Homo sapiens, UniProt O14920).
# output 0.52

* * *

molecular target: human IKK-2 (rhIKK-2 homodimer) (Homo sapiens, UniProt O14920); construct: FLAG (DYKDDDDKD) (C); made in house; host or cells: insect cells (baculovirus, pFastBac); assay: IKK-2 Resin Enzyme Assay (Human IKK-2 Enzyme Assay); type: biochemical; conditions: human IKK-2, resin enzyme assay; read-out: IC50 (μM) hIKK-2
// assign satisfied if IC50 falls strictly below 2 µM, else not satisfied (ties count as not satisfied)

// known answers, use as guide
[[record]]
molecular_string = "CCOc1cc(-n2cc(NC(N)=O)c(C(N)=O)n2)ccc1-c1ccccc1OCC#N"
class_assignment = "not satisfied"

[[record]]
molecular_string = "Cc1cc(-n2cc(NC(N)=O)c(C(N)=O)n2)ccn1"
class_assignment = "not satisfied"

[[record]]
molecular_string = "NC(=O)Nc1nn(-c2ccc(-c3cccc(C(F)(F)F)c3)cc2)cc1C(N)=O"
class_assignment = "not satisfied"


# input Is IC50 of NC(=O)Nc1cn(-c2ccc(-c3ccc(C(=O)O)c(F)c3)cc2F)nc1C(N)=O strictly below 2 µM?
# output satisfied

# input Is IC50 of NC(=O)Nc1cn(-c2ccc(B(O)O)cc2)nc1C(N)=O strictly below 2 µM?
# output satisfied

# input Is IC50 of CC(C)(C)OC(=O)COc1ccc(F)cc1-c1ccc(-n2cc(NC(N)=O)c(C(N)=O)n2)cc1 strictly below 2 µM?
# output not satisfied
